- Assayed System: 20S proteasome
- Assay Name: Inhibition of human 20S proteasome
- Type: protein-complex assay
Parameter pIC50: see the listing below.
Convention used: pIC50 is expressed as -log10 of the molar concentration.

[[record]]
molecule_smiles = "C=CC(=O)NC(=O)/C=C/c1cc(OC)c(OC)c(OC)c1"
measured_metric = "pIC50"
assay_result = 5.59


Here is the next item to consider.
Give the reported value of pIC50 for this record: "COc1cc(/C=C/C(=O)N2CCC=CC2=O)cc(OC)c1OC" 4.82

====

- Tested on: A549
- Assay Name: Antiproliferative activity against human A549 cells assessed as cell growth inhibition
- Assay type: functional, cell-based
Listing: pIC50 of selected compounds
FYI, pIC50 means -log10 of a concentration in mol per litre.

[[record]]
molecule_smiles = "COc1cc(/C=C/C(=O)N2CCC=CC2=O)cc(OC)c1OC"
assay_result = 4.99


Now look at this entry.
Look up and report measured pIC50 for this entry: "COc1cc(/C=C/C(=O)N2CCC=C(Cl)C2=O)cc(OC)c1OC" 5.38

====

- Species: Oryctolagus cuniculus
- Assay Name: Antiplatelet activity in rabbit plasma assessed as inhibition of arachidonic acid induced platelet aggregation by microplate reader analysis
- Format: functional
IC50 values by entry
Only the number, expressed in nM, is required.

[[record]]
molecule = "O=C(/C=C/c1ccc2ccccc2n1)N1CCC=C(Cl)C1=O"
measured_metric = "IC50"
assay_result = 108


Quote IC50 reported for COc1cc(/C=C/C(=O)N2CCC=CC2=O)cc(OC)c1OC [PIPLARTINE] please. 20800

Report IC50, nothing else, for this molecule: "O=C1C=CCCN1C(=O)/C=C/c1ccc2ccccc2n1" 130

====

- Assay Name: Cytotoxicity against mouse RAW264.7 cells assessed as cell growth inhibition
- Assay type: toxicity, cell-based
Measured Metric: pIC50
Kindly note that pIC50 refers to -log10 of the concentration in mol/L and answer with the value alone.

Report measured pIC50; entry is COc1cc(/C=C/C(=O)C2CCC=CC2=O)cc(OC)c1OC (stereo unspecified) 5.22

====

- System: CCRF-CEM
- Assay Name: Antiproliferative activity against human CEM cells assessed as cell growth inhibition
- Format: functional, cell-based
Measured Metric: pIC50
Note on units: pIC50 is unitless, being -log10 of a concentration expressed in mol/L.

Entry COc1cc(/C=C/C(=O)N2CCC=CC2=O)cc(OC)c1OC [PIPLARTINE] needs its pIC50 filled in; supply it. 5.36

====

- Tested on: Jurkat
- Assay Name: Antiproliferative activity against human Jurkat cells assessed as cell growth inhibition
- Type: functional, cell-based
Measured Metric: IC50 (µM)
Value expressed in µM; do not type the unit.

Provide one value: measured IC50 of "COc1cc(/C=C/C(=O)N2CCC=CC2=O)cc(OC)c1OC" 5.3

====

- Tested on: NCI-H1703
- Assay Name: Antiproliferative activity against human NCI-H1703 cells assessed as cell growth inhibition
- Assay type: functional, cell-based
Measured Metric: IC50 (nM)
Dear colleague, please return just the value in nM, with no unit written.

Give IC50; test system NCI-H1703; compound "COc1cc(/C=C/C(=O)N2CCC=C(C#CC3CC3)C2=O)cc(OC)c1OC" 700

====

- Test system: HCT-8
- Assay Name: Antiproliferative activity against human HCT-8 cells assessed as cell growth inhibition in presence of piperlongumine
- Type: functional, cell-based
Measured Metric: IC50 (µM)
Respond numerically; units are µM and should not be typed.

Dear colleague, please send me the reported IC50 for "O=c1[nH]cc(F)c(=O)[nH]1" when you can. 4.7

====

- Test system: K562
- Assay Name: Antiproliferative activity against human K562 cells assessed as cell growth inhibition
- Assay type: functional, cell-based
Measured Metric: IC50 (µM)
// return numeric value only (unit: µM, not printed)

Give a short answer stating reported IC50 for "COc1cc(/C=C/C(=O)N2CCC=CC2=O)cc(OC)c1OC" . 5.7

====

- Test system: DU-145
- Assay Name: Antiproliferative activity against human DU-145 cells assessed as cell growth inhibition
- Assay type: functional, cell-based
Measured Metric: IC50 (µM)
Please respond with the number in µM and leave the unit unwritten.

Name the recorded IC50 of the compound listed here: COc1cc(/C=C/C(=O)N2CCC=CC2=O)cc(OC)c1OC [PIPLARTINE] 3.4

====

- Tested on: HeLa
- Assay Name: Antiproliferative activity against human HeLa cells assessed as cell growth inhibition
- Format: functional, cell-based
Measured Metric: pIC50
Scale explanation: pIC50 corresponds to minus log10 of a concentration expressed in moles per litre.

Look up and state reported pIC50 for "COc1cc(/C=C/C(=O)N2CCC=C(C#CC3CC3)C2=O)cc(OC)c1OC" 5.89

====

- System: MDA-MB-435
- Assay Name: Antiproliferative activity against human MDA-MB-435 cells assessed as cell growth inhibition
- Assay type: functional, cell-based
Measured Metric: IC50 (µM)
Quick reminder: number only, in µM, skip the unit.

Quick one: give measured IC50 for "O=c1[nH]cc(F)c(=O)[nH]1" 9.19
